Tested on: human malignant melanoma cell line A-375
Test: CellTiterBlue cell viability assay, malignant melanoma cell line A-375
Format: cell-based
Conditions: Homo sapiens; A-375 cells, 24 h treatment, CellTiterBlue; read-out: IC50 against A-375 cells
Protocol: The crude extracts were initially tested in vitro against 5 human cancer cell lines: colorectal adenocarcinoma cell line HT-29 (DSMZ, Braunschweig, Germany), malignant melanoma cell line A-375 (CLS, Eppelheim, Germany), colon cancer cell line HCT-116 (DSMZ), lung carcinoma cell line A-549 (CLS, Eppelheim, Germany), human breast cancer line MB-231 (CLS), and the non-cancerous human keratinocyte line HaCaT (CLS) at a concentration of 100 µg/mL. […]
pIC50: −log10 of the molar value.
# label = Met if pIC50 >= 6 else Not met

COMPOUND	CLASS
CC1=CC2CC(C)CCC2C2(C)C(=O)C3(C(=O)C(CO)N(C)C3=O)C(C=CC(C)O)C12 (centres unmarked)	Not met
CC1=C[C@H]2C[C@@H](C)CC[C@@H]2[C@@]2(C)C(=O)[C@@]3(C(=O)[C@@H](CO)N(C)C3=O)[C@H](/C=C/[C@@H](C)O)[C@@H]12	Not met
CC(=O)/C=C/[C@@H]1[C@H]2C(C)=C[C@H]3C[C@@H](C)CC[C@@H]3[C@@]2(C)C(=O)[C@@]12C(=O)[C@@H](CO)N(C)C2=O	Not met
COc1cccc2c1C(=O)c1c(O)c3c(c(O)c1C2=O)C[C@@](O)(C(=O)CO)C[C@@H]3O[C@H]1C[C@H](N)[C@H](O)[C@H](C)O1 [Doxorubicin, reference compound]	Met
C/C=C/C=C/[C@H]1C(C)=C[C@H]2C[C@@H](C)CC[C@@H]2[C@@]1(C)/C(O)=C1/C(=O)[C@@H](CO)N(C)C1=O	Not met
